IC50: recorded values
biological target: DRB1*1302 (Homo sapiens, UniProt P01903+P01911, A100E/A169T/K41T/L162R/M171V/P40S/Q125H/Q178H/Q39Y/Q99D/R42S/S66N/T262R/V115G/W38E/Y61H); test: biochemical; type: binding
Sequence (P01903 26-254 limits assumed, other chains not shown): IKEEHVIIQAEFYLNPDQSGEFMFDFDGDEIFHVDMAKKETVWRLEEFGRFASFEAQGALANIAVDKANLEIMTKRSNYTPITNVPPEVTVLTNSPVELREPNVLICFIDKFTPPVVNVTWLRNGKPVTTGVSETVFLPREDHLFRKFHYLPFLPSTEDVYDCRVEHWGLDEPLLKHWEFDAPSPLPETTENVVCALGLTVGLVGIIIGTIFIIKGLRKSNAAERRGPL
Number only, in nM; omit the unit.

>>> numeric_value("CC[C@H](C)[C@H](NC(=O)[C@H](CCC(N)=O)NC(=O)[C@@H](NC(=O)[C@H](CO)NC(=O)[C@H](CC(=O)O)NC(=O)[C@@H]1CCCN1C(=O)[C@@H](NC(=O)[C@H](C)NC(=O)[C@@H](NC(=O)[C@@H](NC(=O)[C@H](CC(N)=O)NC(=O)[C@H](CC(C)C)NC(=O)[C@@H](N)Cc1ccccc1)[C@@H](C)O)C(C)C)[C@@H](C)CC)C(C)C)C(=O)N[C@@H](CC(C)C)C(=O)N[C@H](C(=O)O)C(C)C [Peptide 1601.20]")
90

Please examine the following record next.
Enquiry: For CC[C@H](C)[C@H](NC(=O)[C@H](Cc1c[nH]c2ccccc12)NC(=O)[C@H](CCC(=O)O)NC(=O)[C@@H]1CCCN1)C(=O)N[C@@H](CCC(=O)O)C(=O)N[C@@H](CCCNC(=N)N)C(=O)N[C@@H](CCC(N)=O)C(=O)N[C@H](C(=O)N[C@H](C(=O)N[C@@H](CC(C)C)C(=O)N[C@@H](CCC(N)=O)C(=O)N[C@@H](Cc1c[nH]cn1)C(=O)N[C@@H](CO)C(=O)N[C@@H](Cc1ccccc1)C(=O)N[C@@H](CC(N)=O)C(=O)O)C(C)C)[C@@H](C)O [Peptide 89.0049] , write its IC50.
Return: 938
